Recorded values, source patent US20260265238A1.

target: SMARCA4-HiBiT HeLa cells (protein which is expressed from the SMARCA4 gene) (Homo sapiens); construct: protein which is expressed from the SMARCA2 and SMARCA4 genes; host or cells: HeLa (SMARCA4-HiBiT engineered line); assay: SMARCA4 degradation assay (HiBiT-fusion HeLa cell line, 24 h, luminescence); assay type: cell-based
Sequence (P51532 whole entry, the tested form may be a part): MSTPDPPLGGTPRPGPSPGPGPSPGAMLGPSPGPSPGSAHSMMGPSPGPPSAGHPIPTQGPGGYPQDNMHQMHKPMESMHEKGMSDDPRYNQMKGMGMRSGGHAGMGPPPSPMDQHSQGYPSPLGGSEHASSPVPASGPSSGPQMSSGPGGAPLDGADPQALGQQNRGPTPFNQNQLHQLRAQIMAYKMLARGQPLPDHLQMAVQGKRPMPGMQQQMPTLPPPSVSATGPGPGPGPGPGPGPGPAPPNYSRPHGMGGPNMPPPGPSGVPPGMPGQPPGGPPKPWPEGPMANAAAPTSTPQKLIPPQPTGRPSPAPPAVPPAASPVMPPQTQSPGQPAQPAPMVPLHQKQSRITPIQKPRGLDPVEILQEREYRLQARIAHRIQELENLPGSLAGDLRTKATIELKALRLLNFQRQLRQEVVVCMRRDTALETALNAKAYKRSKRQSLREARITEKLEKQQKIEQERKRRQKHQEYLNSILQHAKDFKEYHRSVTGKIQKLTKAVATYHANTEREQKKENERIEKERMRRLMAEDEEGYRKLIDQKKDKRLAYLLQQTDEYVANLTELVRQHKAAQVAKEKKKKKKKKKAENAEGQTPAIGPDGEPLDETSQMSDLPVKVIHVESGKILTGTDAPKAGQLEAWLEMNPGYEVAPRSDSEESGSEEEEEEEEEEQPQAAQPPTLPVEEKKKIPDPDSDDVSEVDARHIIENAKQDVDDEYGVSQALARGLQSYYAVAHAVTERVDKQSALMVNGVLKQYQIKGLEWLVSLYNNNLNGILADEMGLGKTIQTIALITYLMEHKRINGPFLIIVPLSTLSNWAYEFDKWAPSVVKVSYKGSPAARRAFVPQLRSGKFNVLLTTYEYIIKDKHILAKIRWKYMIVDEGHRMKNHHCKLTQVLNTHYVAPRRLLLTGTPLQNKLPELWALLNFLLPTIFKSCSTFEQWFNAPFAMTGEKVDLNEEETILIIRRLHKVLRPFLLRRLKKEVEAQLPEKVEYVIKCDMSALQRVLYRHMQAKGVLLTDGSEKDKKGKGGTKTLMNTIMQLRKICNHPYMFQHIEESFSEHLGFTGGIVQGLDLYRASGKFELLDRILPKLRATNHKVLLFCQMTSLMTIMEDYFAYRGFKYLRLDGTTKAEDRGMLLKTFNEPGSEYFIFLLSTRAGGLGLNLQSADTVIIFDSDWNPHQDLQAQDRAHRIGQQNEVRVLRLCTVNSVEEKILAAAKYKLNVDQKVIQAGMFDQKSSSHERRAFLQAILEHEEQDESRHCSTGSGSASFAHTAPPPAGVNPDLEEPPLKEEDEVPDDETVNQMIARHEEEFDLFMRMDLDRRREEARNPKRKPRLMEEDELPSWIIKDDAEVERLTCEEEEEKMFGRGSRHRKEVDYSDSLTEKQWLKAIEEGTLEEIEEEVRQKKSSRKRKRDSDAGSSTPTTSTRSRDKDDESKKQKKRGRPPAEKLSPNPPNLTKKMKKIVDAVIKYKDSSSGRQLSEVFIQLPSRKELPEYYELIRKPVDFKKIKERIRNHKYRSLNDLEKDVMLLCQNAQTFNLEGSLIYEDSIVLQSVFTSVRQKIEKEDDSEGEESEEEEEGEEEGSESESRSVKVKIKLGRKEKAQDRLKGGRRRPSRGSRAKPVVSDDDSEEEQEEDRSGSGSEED
// reported DC50 per item
OUTCOME_MEASURE: DC50

INSERT INTO assay_data (compound, outcome_measure, result_value) VALUES
  ('CN(C)CC#Cc1nccc(N2C[C@H]3CC[C@@H](C2)[C@H]3Oc2cc(-c3ccccc3O)nnc2N)n1 [Compound P-156]', 'DC50', '500 to 5000 nM'),
  ('CC(C)(C)OC(=O)N1CC(C#Cc2nccc(N3CCCN(c4cc(-c5ccccc5O)nnc4N)CC3)n2)C1 [Compound P-371]', 'DC50', '50 to 500 nM'),
  ('N#Cc1ccc(N2C3CCC2CN(c2cnnc(-c4ccccc4O)c2)C3)nc1C#CCN1CC[C@H](F)C1 [Compound P-402]', 'DC50', '50 to 500 nM'),
  ('CN1CCCC1C#Cc1nccc(N2CCCN(c3cc(-c4ccccc4O)nnc3N)CC2)n1 (stereo not shown) [Compound P-350]', 'DC50', '50 to 500 nM'),
  ('C[C@@H]1CCN(c2cc(-c3ccccc3O)nnc2N)CCN1c1ccnc(C#CCN2CC3(CCC3(F)F)C2)n1 [Compound P-201]', 'DC50', '50 to 500 nM'),
  ('Nc1nnc(-c2ccccc2O)cc1N1CCC2(CCCN(c3ccnc(C#CCO)n3)C2)CC1 [Compound P-123]', 'DC50', '< 50 nM'),
  ('C[C@@H]1CN(CC#Cc2nccc(N3CCCN(c4cc(-c5ccccc5O)nnc4N)CC3)n2)CCO1 [Compound P-313]', 'DC50', '500 to 5000 nM');
